Measured values drawn from the supplement of paper PMC7796163 for this set.

target: CYP2C8 (UniProt P10632); experiment: CYP enzyme activity (probe substrate metabolite formation) fold change vs solvent control; higher = stronger induction of CYP activity; conditions: 5 µM; treatment time 12 h; HepaRG
Sequence (P10632 whole entry): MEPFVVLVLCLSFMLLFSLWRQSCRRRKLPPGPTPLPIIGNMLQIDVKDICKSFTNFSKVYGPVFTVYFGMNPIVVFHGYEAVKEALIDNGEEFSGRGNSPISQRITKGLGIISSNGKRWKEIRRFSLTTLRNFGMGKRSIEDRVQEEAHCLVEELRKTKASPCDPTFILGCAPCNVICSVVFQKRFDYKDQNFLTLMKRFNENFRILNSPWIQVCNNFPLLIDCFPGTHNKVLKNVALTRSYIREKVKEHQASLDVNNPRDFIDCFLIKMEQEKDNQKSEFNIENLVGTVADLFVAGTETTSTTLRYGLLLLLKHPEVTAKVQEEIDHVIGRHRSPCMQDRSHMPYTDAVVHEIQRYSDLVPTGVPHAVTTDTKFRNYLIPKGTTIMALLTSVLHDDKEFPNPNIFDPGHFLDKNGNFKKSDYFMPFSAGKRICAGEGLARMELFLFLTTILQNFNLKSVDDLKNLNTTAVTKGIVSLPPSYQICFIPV
reported_metric: CYP enzyme activity
Numbers only.

Known CYP enzyme activity results, listed for orientation:
c1ccc2c(c1)-c1cccc3cccc-2c13 = 0.987
c1ccc2cc3c(ccc4ccccc43)cc2c1 [benzo[a]anthracene] = 0.953
c1ccc2c(c1)cc1ccc3cccc4ccc2c1c34 [benzo[a]pyrene] = 0.671
c1ccc2c(c1)-c1cccc3c1c-2cc1ccccc13 [benzo[b]fluoranthene] = 0.951

Please give CYP enzyme activity, item by item, for the list that follows.
1. c1ccc2c(c1)cc1ccc3cccc4c5ccccc5c2c1c34 [dibenzo[a,l]pyrene]
2. c1cc2ccc3cccc4ccc(c1)c2c34

Reply |
1: 0.644; 2: 0.921

Please give CYP enzyme activity, item by item, for the list that follows.
1. c1ccc2c3c(ccc2c1)-c1cccc2cccc-3c12 [benzo[j]fluoranthene]
2. c1ccc2c(c1)ccc1ccccc12
3. c1ccc2cc3c(cc2c1)-c1cccc2cccc-3c12 [benzo[k]fluoranthene]
4. c1ccc2c(c1)ccc1ccc3ccccc3c12 [benzo[c]phenanthrene]

Reply |
0.894
0.991
0.875
0.947

* * *

biological target: CYP2C8 (UniProt P10632); assay: CYP enzyme activity (probe substrate metabolite formation) fold change vs solvent control; higher = stronger induction of CYP activity; conditions: 5 µM; treatment time 48 h; HepaRG
Use 0.9 as the dividing line for CYP enzyme activity, with the line itself on the fulfilled side and lower values as not fulfilled.

Would you please look over these solved cases?
c1ccc2c(c1)ccc1ccccc12 [phenanthrene] = fulfilled
c1ccc2c3c(ccc2c1)-c1cccc2cccc-3c12 [benzo[j]fluoranthene] = not fulfilled
c1ccc2c(c1)cc1ccc3cccc4ccc2c1c34 [benzo[a]pyrene] = not fulfilled
c1ccc2c(c1)-c1cccc3c1c-2cc1ccccc13 [benzo[b]fluoranthene] = not fulfilled
c1cc2ccc3cccc4ccc(c1)c2c34 [pyrene] = fulfilled
c1ccc2c(c1)ccc1ccc3ccccc3c12 [benzo[c]phenanthrene] = fulfilled
c1ccc2cc3c(cc2c1)-c1cccc2cccc-3c12 [benzo[k]fluoranthene] = not fulfilled
c1ccc2c(c1)-c1cccc3cccc-2c13 [fluoranthene] = fulfilled

Continue with the next compound.
Ask | Item c1ccc2c(c1)cc1ccc3cccc4c5ccccc5c2c1c34 [dibenzo[a,l]pyrene] with CYP enzyme activity of 0.9 or above?
Reply | not fulfilled

* * *

molecular target: CYP3A4 (UniProt P08684); test: CYP enzyme activity (probe substrate metabolite formation) fold change vs solvent control; higher = stronger induction of CYP activity; conditions: 10 µM; treatment time 12 h; HepaRG
Sequence (P08684 whole entry): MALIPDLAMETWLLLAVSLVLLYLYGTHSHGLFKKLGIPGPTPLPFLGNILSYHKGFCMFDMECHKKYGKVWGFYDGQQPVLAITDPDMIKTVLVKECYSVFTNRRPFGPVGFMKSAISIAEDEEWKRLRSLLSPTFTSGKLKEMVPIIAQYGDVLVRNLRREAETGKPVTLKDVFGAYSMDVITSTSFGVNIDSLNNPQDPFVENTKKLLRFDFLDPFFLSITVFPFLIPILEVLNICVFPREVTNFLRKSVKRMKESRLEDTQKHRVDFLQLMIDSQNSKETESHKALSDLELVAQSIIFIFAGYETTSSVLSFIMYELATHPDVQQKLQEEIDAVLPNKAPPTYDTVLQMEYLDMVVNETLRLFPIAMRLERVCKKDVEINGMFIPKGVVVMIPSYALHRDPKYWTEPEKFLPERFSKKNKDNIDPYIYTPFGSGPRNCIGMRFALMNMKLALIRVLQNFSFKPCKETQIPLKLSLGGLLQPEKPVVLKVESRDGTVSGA
Would you mind telling me the reported CYP enzyme activity of each entry?
Give bare numbers.

Known CYP enzyme activity results, listed for orientation:
c1ccc2c(c1)-c1cccc3cccc-2c13 = 1
c1ccc2cc3c(cc2c1)-c1cccc2cccc-3c12 [benzo[k]fluoranthene] = 0.93
c1ccc2c(c1)cc1ccc3cccc4ccc2c1c34 [benzo[a]pyrene] = 1.05
c1ccc2cc3c(ccc4ccccc43)cc2c1 [benzo[a]anthracene] = 0.907
c1ccc2c(c1)ccc1ccc3ccccc3c12 [benzo[c]phenanthrene] = 0.849

Please give CYP enzyme activity, item by item, for the list that follows.
1. c1ccc2c(c1)-c1cccc3c1c-2cc1ccccc13 [benzo[b]fluoranthene]
2. c1ccc2c(c1)ccc1ccccc12
3. c1ccc2c3c(ccc2c1)-c1cccc2cccc-3c12 [benzo[j]fluoranthene]
4. c1ccc2c(c1)cc1ccc3cccc4c5ccccc5c2c1c34 [dibenzo[a,l]pyrene]
5. c1cc2ccc3cccc4ccc(c1)c2c34

Reply |
1: 0.875; 2: 0.928; 3: 0.916; 4: 0.543; 5: 0.916

* * *

target: CYP2B6 (UniProt P20813); test: CYP enzyme activity (probe substrate metabolite formation) fold change vs solvent control; higher = stronger induction of CYP activity; conditions: 5 µM; treatment time 12 h; HepaRG
Sequence (P20813 whole entry): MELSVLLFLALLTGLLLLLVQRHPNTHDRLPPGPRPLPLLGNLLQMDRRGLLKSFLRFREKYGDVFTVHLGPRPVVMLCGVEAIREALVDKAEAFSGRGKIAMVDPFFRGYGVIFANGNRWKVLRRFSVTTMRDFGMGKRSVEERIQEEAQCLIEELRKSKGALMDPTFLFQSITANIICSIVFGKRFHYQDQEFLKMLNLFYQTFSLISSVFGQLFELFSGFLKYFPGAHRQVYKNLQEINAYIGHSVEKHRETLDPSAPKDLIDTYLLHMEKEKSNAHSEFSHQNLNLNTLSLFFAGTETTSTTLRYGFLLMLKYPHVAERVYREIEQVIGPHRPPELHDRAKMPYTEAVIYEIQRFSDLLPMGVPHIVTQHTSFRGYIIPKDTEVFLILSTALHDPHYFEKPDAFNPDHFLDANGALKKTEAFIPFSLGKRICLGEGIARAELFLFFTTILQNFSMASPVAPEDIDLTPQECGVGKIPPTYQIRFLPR
Use 1 as the dividing line for CYP enzyme activity, with the line itself on the Met side and lower values as Not met.

c1ccc2c(c1)-c1cccc3cccc-2c13 [fluoranthene] = Met
c1ccc2c(c1)-c1cccc3c1c-2cc1ccccc13 [benzo[b]fluoranthene] = Met
c1ccc2c(c1)cc1ccc3cccc4c5ccccc5c2c1c34 [dibenzo[a,l]pyrene] = Not met
c1ccc2c(c1)ccc1ccc3ccccc3c12 [benzo[c]phenanthrene] = Met

Ask | Item c1ccc2c3c(ccc2c1)-c1cccc2cccc-3c12 [benzo[j]fluoranthene] with CYP enzyme activity of 1 or above?
Reply | Met

* * *

molecular target: CYP1A2 (UniProt P05177); assay: CYP enzyme activity (probe substrate metabolite formation) fold change vs solvent control; higher = stronger induction of CYP activity; conditions: 1 µM; treatment time 12 h; HepaRG
Sequence (P05177 whole entry): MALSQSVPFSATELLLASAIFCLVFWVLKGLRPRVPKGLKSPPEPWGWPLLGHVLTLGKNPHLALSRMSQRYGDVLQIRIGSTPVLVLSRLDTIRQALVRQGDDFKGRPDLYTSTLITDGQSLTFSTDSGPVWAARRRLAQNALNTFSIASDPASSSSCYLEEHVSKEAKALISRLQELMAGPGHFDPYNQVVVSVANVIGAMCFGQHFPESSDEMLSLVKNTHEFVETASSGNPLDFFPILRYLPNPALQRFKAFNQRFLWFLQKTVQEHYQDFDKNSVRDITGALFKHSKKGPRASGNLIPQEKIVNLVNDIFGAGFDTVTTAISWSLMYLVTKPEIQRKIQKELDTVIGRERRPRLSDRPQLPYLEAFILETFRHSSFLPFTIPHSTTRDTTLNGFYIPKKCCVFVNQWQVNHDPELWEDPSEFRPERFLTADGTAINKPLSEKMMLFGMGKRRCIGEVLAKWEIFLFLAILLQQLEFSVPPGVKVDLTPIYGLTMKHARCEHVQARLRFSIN
Use 1 as the dividing line for CYP enzyme activity, with the line itself on the true side and lower values as false.

c1ccc2c(c1)cc1ccc3cccc4c5ccccc5c2c1c34 [dibenzo[a,l]pyrene] = true

Ask | Item c1ccc2c(c1)ccc1ccc3ccccc3c12 [benzo[c]phenanthrene] with CYP enzyme activity of 1 or above?
Reply | true

Ask | Same again, this time with c1ccc2c(c1)-c1cccc3c1c-2cc1ccccc13 [benzo[b]fluoranthene]
Reply | true

Ask | Same again, this time with c1ccc2c(c1)ccc1ccccc12
Reply | false

* * *

molecular target: CYP2C19 (UniProt P33261); test: CYP enzyme activity (probe substrate metabolite formation) fold change vs solvent control; higher = stronger induction of CYP activity; settings: 1 µM; treatment time 48 h; HepaRG
Sequence (P33261 whole entry): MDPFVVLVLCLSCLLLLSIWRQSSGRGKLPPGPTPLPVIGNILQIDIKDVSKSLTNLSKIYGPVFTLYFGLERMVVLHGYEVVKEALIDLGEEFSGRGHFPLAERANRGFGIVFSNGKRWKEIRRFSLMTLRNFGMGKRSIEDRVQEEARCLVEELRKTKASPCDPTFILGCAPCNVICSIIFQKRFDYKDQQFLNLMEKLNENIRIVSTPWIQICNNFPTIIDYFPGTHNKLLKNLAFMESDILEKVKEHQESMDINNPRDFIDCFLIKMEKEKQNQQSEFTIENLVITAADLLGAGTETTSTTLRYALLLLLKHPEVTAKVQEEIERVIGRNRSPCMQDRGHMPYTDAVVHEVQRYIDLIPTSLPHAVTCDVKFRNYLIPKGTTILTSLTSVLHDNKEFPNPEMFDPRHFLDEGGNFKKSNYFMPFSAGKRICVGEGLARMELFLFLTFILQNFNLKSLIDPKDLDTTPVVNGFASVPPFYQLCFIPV
reported_metric: CYP enzyme activity
Numbers only.

Known CYP enzyme activity results, listed for orientation:
c1ccc2c(c1)cc1ccc3cccc4ccc2c1c34 [benzo[a]pyrene] = 0.85
c1ccc2c(c1)cc1ccc3cccc4c5ccccc5c2c1c34 [dibenzo[a,l]pyrene] = 0.763
c1ccc2c(c1)ccc1ccc3ccccc3c12 [benzo[c]phenanthrene] = 1.04
c1ccc2c(c1)-c1cccc3c1c-2cc1ccccc13 [benzo[b]fluoranthene] = 0.984
c1ccc2cc3c(cc2c1)-c1cccc2cccc-3c12 [benzo[k]fluoranthene] = 0.832

Please give CYP enzyme activity, item by item, for the list that follows.
1. c1cc2ccc3cccc4ccc(c1)c2c34
2. c1ccc2c(c1)ccc1ccccc12
3. c1ccc2c3c(ccc2c1)-c1cccc2cccc-3c12 [benzo[j]fluoranthene]
4. c1ccc2cc3c(ccc4ccccc43)cc2c1 [benzo[a]anthracene]
5. c1ccc2c(c1)-c1cccc3cccc-2c13

Reply |
1.16
0.981
0.948
0.862
1.1

* * *

Would you mind telling me the reported CYP enzyme activity of each entry?
biological target: CYP2D6 (UniProt P10635); assay: CYP enzyme activity (probe substrate metabolite formation) fold change vs solvent control; higher = stronger induction of CYP activity; settings: 10 µM; treatment time 24 h; HepaRG
Sequence (P10635 whole entry): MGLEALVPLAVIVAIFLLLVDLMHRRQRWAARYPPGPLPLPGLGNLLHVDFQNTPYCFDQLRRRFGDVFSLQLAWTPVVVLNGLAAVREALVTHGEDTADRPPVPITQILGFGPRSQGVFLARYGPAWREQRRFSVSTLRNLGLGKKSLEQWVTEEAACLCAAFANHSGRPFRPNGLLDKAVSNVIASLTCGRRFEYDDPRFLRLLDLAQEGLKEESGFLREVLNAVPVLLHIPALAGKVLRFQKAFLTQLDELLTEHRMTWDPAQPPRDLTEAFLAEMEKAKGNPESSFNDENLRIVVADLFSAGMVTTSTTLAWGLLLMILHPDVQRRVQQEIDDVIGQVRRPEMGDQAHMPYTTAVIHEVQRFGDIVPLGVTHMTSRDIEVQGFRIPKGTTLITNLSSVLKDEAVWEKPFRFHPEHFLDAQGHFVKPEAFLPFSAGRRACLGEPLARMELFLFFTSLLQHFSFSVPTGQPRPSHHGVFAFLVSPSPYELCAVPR
Answers are plain numbers.

Please give CYP enzyme activity, item by item, for the list that follows.
1. c1ccc2c(c1)-c1cccc3c1c-2cc1ccccc13 [benzo[b]fluoranthene]
2. c1ccc2c(c1)ccc1ccc3ccccc3c12 [benzo[c]phenanthrene]
3. c1ccc2cc3c(cc2c1)-c1cccc2cccc-3c12 [benzo[k]fluoranthene]
4. c1ccc2c(c1)cc1ccc3cccc4ccc2c1c34 [benzo[a]pyrene]
5. c1cc2ccc3cccc4ccc(c1)c2c34 [pyrene]

Reply |
1. 1.87
2. 1.13
3. 2.98
4. 1.34
5. 1.2

* * *

molecular target: CYP2C9 (UniProt P11712); assay: CYP enzyme activity (probe substrate metabolite formation) fold change vs solvent control; higher = stronger induction of CYP activity; settings: 10 µM; treatment time 48 h; HepaRG
Sequence (P11712 whole entry): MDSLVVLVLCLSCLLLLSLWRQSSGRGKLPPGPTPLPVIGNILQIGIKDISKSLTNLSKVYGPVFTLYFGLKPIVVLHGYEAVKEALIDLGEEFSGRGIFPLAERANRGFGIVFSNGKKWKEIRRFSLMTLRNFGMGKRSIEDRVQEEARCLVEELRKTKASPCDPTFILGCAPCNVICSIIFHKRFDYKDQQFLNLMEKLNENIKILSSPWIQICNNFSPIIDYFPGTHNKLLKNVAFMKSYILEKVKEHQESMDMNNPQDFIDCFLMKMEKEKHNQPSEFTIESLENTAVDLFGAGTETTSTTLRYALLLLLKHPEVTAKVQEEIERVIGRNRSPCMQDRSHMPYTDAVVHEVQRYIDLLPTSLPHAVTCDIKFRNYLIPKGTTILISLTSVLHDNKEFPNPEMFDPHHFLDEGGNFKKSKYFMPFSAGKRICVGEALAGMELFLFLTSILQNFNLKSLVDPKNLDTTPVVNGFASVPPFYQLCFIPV
Would you mind telling me the reported CYP enzyme activity of each entry?
Answers are plain numbers.

Known CYP enzyme activity results, listed for orientation:
c1ccc2c(c1)-c1cccc3c1c-2cc1ccccc13 [benzo[b]fluoranthene] = 0.602
c1ccc2c(c1)cc1ccc3cccc4c5ccccc5c2c1c34 [dibenzo[a,l]pyrene] = 0.233
c1ccc2c(c1)cc1ccc3cccc4ccc2c1c34 [benzo[a]pyrene] = 0.654
c1cc2ccc3cccc4ccc(c1)c2c34 = 1.45
c1ccc2c(c1)-c1cccc3cccc-2c13 = 1.39

Please give CYP enzyme activity, item by item, for the list that follows.
1. c1ccc2c(c1)ccc1ccc3ccccc3c12 [benzo[c]phenanthrene]
2. c1ccc2c3c(ccc2c1)-c1cccc2cccc-3c12 [benzo[j]fluoranthene]
3. c1ccc2cc3c(cc2c1)-c1cccc2cccc-3c12 [benzo[k]fluoranthene]
4. c1ccc2cc3c(ccc4ccccc43)cc2c1 [benzo[a]anthracene]
5. c1ccc2c(c1)ccc1ccccc12

Reply |
[1.21, 0.75, 0.312, 0.849, 1.34]

* * *

target: CYP2D6 (UniProt P10635); assay: CYP enzyme activity (probe substrate metabolite formation) fold change vs solvent control; higher = stronger induction of CYP activity; details: 1 µM; treatment time 48 h; HepaRG
Use 0.9 as the dividing line for CYP enzyme activity, with the line itself on the fulfilled side and lower values as not fulfilled.

Ask | Item c1ccc2c(c1)-c1cccc3c1c-2cc1ccccc13 [benzo[b]fluoranthene] with CYP enzyme activity of 0.9 or above?
Reply | not fulfilled

Ask | Same again, this time with c1ccc2c(c1)ccc1ccc3ccccc3c12 [benzo[c]phenanthrene]
Reply | not fulfilled

Ask | Same again, this time with c1ccc2c(c1)cc1ccc3cccc4c5ccccc5c2c1c34 [dibenzo[a,l]pyrene]
Reply | not fulfilled

Ask | Same again, this time with c1cc2ccc3cccc4ccc(c1)c2c34
Reply | fulfilled

Ask | Same again, this time with c1ccc2cc3c(cc2c1)-c1cccc2cccc-3c12 [benzo[k]fluoranthene]
Reply | fulfilled

Ask | Same again, this time with c1ccc2cc3c(ccc4ccccc43)cc2c1 [benzo[a]anthracene]
Reply | not fulfilled

Ask | Same again, this time with c1ccc2c3c(ccc2c1)-c1cccc2cccc-3c12 [benzo[j]fluoranthene]
Reply | not fulfilled

Ask | Same again, this time with c1ccc2c(c1)cc1ccc3cccc4ccc2c1c34 [benzo[a]pyrene]
Reply | not fulfilled
